Measured fold changes relative to vehicle control, listed per entry for reference.
STUDY_TARGET: HeLa cell extract proteins (Homo sapiens, UniProt P41091)
Construct: endogenous in cells; host or cells: HeLa cell extract
Sequence (P41091 whole entry): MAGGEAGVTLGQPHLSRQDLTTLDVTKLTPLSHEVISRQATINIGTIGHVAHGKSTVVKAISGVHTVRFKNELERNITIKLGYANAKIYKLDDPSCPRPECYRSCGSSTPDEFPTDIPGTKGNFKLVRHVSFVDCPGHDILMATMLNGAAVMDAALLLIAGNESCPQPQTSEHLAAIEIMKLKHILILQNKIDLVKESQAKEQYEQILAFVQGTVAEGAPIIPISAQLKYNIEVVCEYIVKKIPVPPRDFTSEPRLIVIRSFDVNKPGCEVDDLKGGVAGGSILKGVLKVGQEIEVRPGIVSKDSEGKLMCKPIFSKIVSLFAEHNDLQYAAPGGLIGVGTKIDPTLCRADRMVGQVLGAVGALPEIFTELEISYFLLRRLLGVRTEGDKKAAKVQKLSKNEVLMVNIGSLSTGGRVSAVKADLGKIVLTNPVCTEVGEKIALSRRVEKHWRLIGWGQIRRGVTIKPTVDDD
Assay type: binding
CONDITION_SET: protein EIF2S3; HeLa
The reply should be a number, written without any unit.

Please review the entries below; each comes with its answer.
INSERT INTO results (compound, reported_endpoint, value_observed) VALUES
  ('CCCCCCOc1ccc(Cc2cnc(N)nc2N)cc1 [compound 1]', 'fold changes relative to vehicle control', 1.07),
  ('Nc1nc2cccc(-c3ccccc3)c2n1Cc1ccc(Cl)c(Cl)c1 [compound 3]', 'fold changes relative to vehicle control', 1.06),
  ('Nc1nc2c(c(=O)[nH]1)N(C=O)C(CNc1ccc(C(=O)N[C@@H](CCC(=O)O)C(=O)O)cc1)CN2 (stereo partly drawn) [LEU, leucovorin]', 'fold changes relative to vehicle control', 0.81);

[in] Field request: fold changes relative to vehicle control | item: NCCOCCOCC(=O)Nc1nc2ncc(CNc3ccc(C(=O)NC(CCC(=O)O)C(=O)O)cc3)nc2c(=O)[nH]1 (stereo not drawn) [compound 6]
[out] 1.07

[in] GET /values?readout=fold changes relative to vehicle control&item= CCCCCCOc1cccc(Cc2cnc(N)nc2N)c1 [compound 2]
[out] 1.13

[in] // query fold changes relative to vehicle control value for entry NCCCNc1ccc(C(=O)NC(CCC(=O)O)C(=O)O)cc1 (stereo not drawn) [compound 7]
[out] 1

====

STUDY_TARGET: HeLa cell extract proteins (Homo sapiens, UniProt O14744)
Construct: endogenous in cells; host or cells: HeLa cell extract
Sequence (O14744 whole entry): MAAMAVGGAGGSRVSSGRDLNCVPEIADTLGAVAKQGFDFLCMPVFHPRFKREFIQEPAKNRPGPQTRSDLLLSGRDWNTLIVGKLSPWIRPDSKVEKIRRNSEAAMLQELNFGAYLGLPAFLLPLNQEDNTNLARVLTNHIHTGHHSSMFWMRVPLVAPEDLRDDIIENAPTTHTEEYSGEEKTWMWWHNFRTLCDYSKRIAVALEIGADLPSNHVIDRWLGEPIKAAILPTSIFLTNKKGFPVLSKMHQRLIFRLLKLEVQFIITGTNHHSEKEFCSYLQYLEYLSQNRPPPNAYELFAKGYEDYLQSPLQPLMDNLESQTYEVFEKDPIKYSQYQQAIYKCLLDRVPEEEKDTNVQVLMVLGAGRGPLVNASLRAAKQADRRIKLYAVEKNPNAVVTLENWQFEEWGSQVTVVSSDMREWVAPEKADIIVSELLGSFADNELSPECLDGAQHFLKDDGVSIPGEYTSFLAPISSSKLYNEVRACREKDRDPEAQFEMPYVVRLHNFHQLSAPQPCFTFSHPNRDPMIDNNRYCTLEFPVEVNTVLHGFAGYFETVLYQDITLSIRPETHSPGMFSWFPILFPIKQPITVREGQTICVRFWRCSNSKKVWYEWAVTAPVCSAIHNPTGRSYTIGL
Format: binding
CONDITION_SET: protein PRMT5; HeLa
REPORTED_ENDPOINT: fold changes relative to vehicle control
Keep the answer to the number alone.

INSERT INTO measurements (compound, value_observed) VALUES
  ('CCCCCCOc1ccc(Cc2cnc(N)nc2N)cc1', 0.93),
  ('CCCCCCOc1cccc(Cc2cnc(N)nc2N)c1', 1.12),
  ('Nc1nc2c(c(=O)[nH]1)N(C=O)C(CNc1ccc(C(=O)N[C@@H](CCC(=O)O)C(=O)O)cc1)CN2 (stereo partly drawn)', 0.96);

[in] Request the reported fold changes relative to vehicle control associated with NCCCNc1ccc(C(=O)NC(CCC(=O)O)C(=O)O)cc1 (stereo not drawn)
[out] 1.05

[in] Quick check: fold changes relative to vehicle control of Nc1nc2cccc(-c3ccccc3)c2n1Cc1ccc(Cl)c(Cl)c1 ?
[out] 0.85

[in] Would you mind telling me what fold changes relative to vehicle control value was observed for NCCOCCOCC(=O)Nc1nc2ncc(CNc3ccc(C(=O)NC(CCC(=O)O)C(=O)O)cc3)nc2c(=O)[nH]1 (stereo not drawn) ?
[out] 1.21

====

The reader will find reported fold change values listed item by item below.
STUDY_TARGET: GLYCERALDEHYDE 3-PHOSPHATE DEHYDROGENASE, GLYCOSOM (TB427.06.4300) (Trypanosoma brucei brucei, UniProt P22512)
Sequence (P22512 whole entry): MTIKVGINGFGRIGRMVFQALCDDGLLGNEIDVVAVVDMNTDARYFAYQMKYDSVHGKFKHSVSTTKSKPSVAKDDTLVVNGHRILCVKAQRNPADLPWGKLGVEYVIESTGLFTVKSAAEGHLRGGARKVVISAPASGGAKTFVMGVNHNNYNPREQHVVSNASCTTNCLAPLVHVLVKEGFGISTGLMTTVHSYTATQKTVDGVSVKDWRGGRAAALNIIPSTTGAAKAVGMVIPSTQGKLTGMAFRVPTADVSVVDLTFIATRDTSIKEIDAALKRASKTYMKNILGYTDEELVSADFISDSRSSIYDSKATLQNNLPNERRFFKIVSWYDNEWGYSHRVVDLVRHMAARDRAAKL
TEST_PROTOCOL: Multitargeted bead mixture competition
Type: binding, T. brucei
CONDITION_SET: protein TB427.06.4300 GLYCERALDEHYDE 3-PHOSPHATE DEHYDROGENASE, GLYCOSOMAL; vehicle control = 1
Number only, please.

INSERT INTO results (compound, reported_endpoint, value_observed) VALUES
  ('Nc1nc2[nH]cc(CCc3ccc(C(=O)N[C@@H](CCC(=O)O)C(=O)O)cc3)c2c(=O)[nH]1', 'fold change', 0.91),
  ('NCCCNc1ccc(C(=O)NC(CCC(=O)O)C(=O)O)cc1 (stereo not shown)', 'fold change', 1.07),
  ('NCCOCCOCC(=O)Nc1nc2ncc(CNc3ccc(C(=O)NC(CCC(=O)O)C(=O)O)cc3)nc2c(=O)[nH]1 (stereo not shown)', 'fold change', 0.92);

[in] Quick check: fold change of Nc1nc2c(c(=O)[nH]1)N(C=O)C(CNc1ccc(C(=O)N[C@@H](CCC(=O)O)C(=O)O)cc1)CN2 (stereo partly shown) ?
[out] 1.01

====

STUDY_TARGET: HeLa cell extract proteins (Homo sapiens, UniProt Q8IXB1)
Construct: endogenous in cells; host or cells: HeLa cell extract
Sequence (Q8IXB1 33-793): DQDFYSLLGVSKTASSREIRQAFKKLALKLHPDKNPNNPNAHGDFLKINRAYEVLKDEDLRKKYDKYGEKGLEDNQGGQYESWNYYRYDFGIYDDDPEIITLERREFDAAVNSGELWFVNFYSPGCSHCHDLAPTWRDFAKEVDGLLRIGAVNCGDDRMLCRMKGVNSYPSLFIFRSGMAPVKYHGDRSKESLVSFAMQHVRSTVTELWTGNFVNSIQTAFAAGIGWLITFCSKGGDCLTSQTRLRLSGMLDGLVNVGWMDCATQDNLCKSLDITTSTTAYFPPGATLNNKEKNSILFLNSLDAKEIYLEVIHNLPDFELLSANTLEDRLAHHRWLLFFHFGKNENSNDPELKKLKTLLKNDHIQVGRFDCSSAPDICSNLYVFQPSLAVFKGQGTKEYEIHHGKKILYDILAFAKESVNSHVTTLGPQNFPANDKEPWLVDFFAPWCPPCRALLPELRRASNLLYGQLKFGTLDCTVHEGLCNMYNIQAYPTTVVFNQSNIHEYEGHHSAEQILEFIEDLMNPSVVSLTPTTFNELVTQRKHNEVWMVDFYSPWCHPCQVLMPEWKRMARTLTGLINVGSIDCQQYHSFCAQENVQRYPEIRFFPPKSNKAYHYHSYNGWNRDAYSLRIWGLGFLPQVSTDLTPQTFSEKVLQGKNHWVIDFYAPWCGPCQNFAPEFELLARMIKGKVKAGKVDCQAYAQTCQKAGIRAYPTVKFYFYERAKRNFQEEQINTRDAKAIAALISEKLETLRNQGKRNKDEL
Type: binding
CONDITION_SET: HeLa; protein DNAJC10
REPORTED_ENDPOINT: fold changes relative to vehicle control
Give the figure only, with no unit attached.

INSERT INTO measurements (compound, value_observed) VALUES
  ('Nc1nc2cccc(-c3ccccc3)c2n1Cc1ccc(Cl)c(Cl)c1 [compound 3]', 1.04),
  ('CCCCCCOc1cccc(Cc2cnc(N)nc2N)c1 [compound 2]', 0.85),
  ('Nc1nc2c(c(=O)[nH]1)N(C=O)C(CNc1ccc(C(=O)N[C@@H](CCC(=O)O)C(=O)O)cc1)CN2 (stereo partly drawn) [LEU, leucovorin]', 0.89),
  ('CCCCCCOc1ccc(Cc2cnc(N)nc2N)cc1 [compound 1]', 0.89);

[in] Quick one: fold changes relative to vehicle control for NCCOCCOCC(=O)Nc1nc2ncc(CNc3ccc(C(=O)NC(CCC(=O)O)C(=O)O)cc3)nc2c(=O)[nH]1 (stereo not drawn) [compound 6] ?
[out] 0.89

[in] Can you look up the measured fold changes relative to vehicle control of NCCCNc1ccc(C(=O)NC(CCC(=O)O)C(=O)O)cc1 (stereo not drawn) [compound 7] for me?
[out] 0.94

====

System: HYPOTHETICAL PROTEIN, CONSERVED (Tb427.10.6100)
TEST_PROTOCOL: Multitargeted bead mixture competition
Assay type: binding
CONDITION_SET: free ligand 100 μM, T. brucei lysate
REPORTED_ENDPOINT: percentage of competition from bead binding (%)
The reply should contain only the number, in %.

INSERT INTO results (molecule, study_target, value_observed) VALUES
  ('Cc1ccc2nc(N)[nH]c(=O)c2c1Sc1ccncc1 [NTX, nolatrexed]', 'HYPOTHETICAL PROTEIN, CONSERVED (Tb427.10.6100)', 33),
  ('Nc1nc2cccc(-c3ccccc3)c2n1Cc1ccc(Cl)c(Cl)c1 [compound 3]', 'HYPOTHETICAL PROTEIN, CONSERVED (Tb427.10.6100)', 67),
  ('CN(Cc1cnc2nc(N)nc(N)c2n1)c1ccc(C(=O)N[C@@H](CCC(=O)O)C(=O)O)cc1 [MTX, methotrexate]', 'HYPOTHETICAL PROTEIN, CONSERVED (Tb427.10.6100)', 23);

Now look at this entry.
[in] Field request: percentage of competition from bead binding | item: Nc1nc(O)c2c(CCc3ccccc3)c[nH]c2n1 [compound 5]
[out] 77

====

Below: a set of entries, each annotated with reported fold changes relative to vehicle control.
STUDY_TARGET: HeLa cell extract proteins (Homo sapiens)
Construct: endogenous in cells; host or cells: HeLa cell extract
Sequence (O75694 1-1391): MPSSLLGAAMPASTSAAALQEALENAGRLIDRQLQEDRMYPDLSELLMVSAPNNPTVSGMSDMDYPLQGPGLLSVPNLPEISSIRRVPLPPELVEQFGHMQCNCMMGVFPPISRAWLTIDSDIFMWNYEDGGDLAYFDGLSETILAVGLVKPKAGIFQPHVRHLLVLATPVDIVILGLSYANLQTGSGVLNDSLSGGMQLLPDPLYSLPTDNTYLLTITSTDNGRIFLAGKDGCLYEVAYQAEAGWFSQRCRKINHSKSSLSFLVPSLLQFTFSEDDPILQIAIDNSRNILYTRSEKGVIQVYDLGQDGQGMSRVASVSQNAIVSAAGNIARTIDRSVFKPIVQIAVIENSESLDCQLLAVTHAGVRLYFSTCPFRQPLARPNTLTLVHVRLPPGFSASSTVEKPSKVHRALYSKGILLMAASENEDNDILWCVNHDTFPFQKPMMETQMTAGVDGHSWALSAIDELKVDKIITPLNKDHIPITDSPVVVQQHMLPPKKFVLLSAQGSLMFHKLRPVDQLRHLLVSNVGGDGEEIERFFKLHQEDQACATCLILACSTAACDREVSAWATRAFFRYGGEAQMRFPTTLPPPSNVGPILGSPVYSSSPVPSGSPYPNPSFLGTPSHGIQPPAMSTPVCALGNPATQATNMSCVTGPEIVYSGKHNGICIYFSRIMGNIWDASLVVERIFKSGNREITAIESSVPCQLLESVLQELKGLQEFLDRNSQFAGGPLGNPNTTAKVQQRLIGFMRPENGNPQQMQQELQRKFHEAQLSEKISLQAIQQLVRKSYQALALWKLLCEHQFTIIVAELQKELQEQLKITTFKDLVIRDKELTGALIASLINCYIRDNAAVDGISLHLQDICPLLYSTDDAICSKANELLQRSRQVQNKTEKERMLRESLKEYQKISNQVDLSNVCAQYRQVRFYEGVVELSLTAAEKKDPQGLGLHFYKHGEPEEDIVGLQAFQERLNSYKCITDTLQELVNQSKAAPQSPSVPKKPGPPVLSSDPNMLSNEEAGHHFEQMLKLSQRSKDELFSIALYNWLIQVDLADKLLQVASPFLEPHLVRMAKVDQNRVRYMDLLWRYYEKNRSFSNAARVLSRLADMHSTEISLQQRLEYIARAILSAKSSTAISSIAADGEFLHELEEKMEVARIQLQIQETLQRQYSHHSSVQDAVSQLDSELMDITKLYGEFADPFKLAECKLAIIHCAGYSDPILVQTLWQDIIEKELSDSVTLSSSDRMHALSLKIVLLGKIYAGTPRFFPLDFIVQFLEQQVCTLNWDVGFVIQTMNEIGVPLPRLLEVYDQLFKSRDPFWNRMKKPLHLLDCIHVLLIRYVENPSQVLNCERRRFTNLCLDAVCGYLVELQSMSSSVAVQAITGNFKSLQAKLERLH
Type: binding
CONDITION_SET: HeLa; protein NUP155
// response body must contain only the number

Field: example entries. Status: answers known.
INSERT INTO measurements (compound, study_target, value_observed) VALUES
  ('NCCOCCOCC(=O)Nc1nc2ncc(CNc3ccc(C(=O)NC(CCC(=O)O)C(=O)O)cc3)nc2c(=O)[nH]1 (stereo not drawn) [compound 6]', 'HeLa cell extract proteins (Homo sapiens)', 0.92),
  ('CCCCCCOc1cccc(Cc2cnc(N)nc2N)c1 [compound 2]', 'HeLa cell extract proteins (Homo sapiens)', 1.01),
  ('CCCCCCOc1ccc(Cc2cnc(N)nc2N)cc1 [compound 1]', 'HeLa cell extract proteins (Homo sapiens)', 1.04),
  ('NCCCNc1ccc(C(=O)NC(CCC(=O)O)C(=O)O)cc1 (stereo not drawn) [compound 7]', 'HeLa cell extract proteins (Homo sapiens)', 1.03),
  ('Nc1nc2c(c(=O)[nH]1)N(C=O)C(CNc1ccc(C(=O)N[C@@H](CCC(=O)O)C(=O)O)cc1)CN2 (stereo partly drawn) [LEU, leucovorin]', 'HeLa cell extract proteins (Homo sapiens)', 0.87);

Now for another entry.
[in] Field request: fold changes relative to vehicle control | item: Nc1nc2cccc(-c3ccccc3)c2n1Cc1ccc(Cl)c(Cl)c1 [compound 3]
[out] 1.2
